# Tested on: NCI-H1975
# PROTOCOL_DESCRIPTION: relative viability (nuclei count vs DMSO), 5 days (fraction); higher = more cells survive
# COND: first compound 0.02 µM
Entries annotated with measured relative viability
QUANTITY: relative viability

compound="CC(=O)O[C@@]12CO[C@@H]1C[C@H](O)[C@@]1(C)C(=O)[C@H](O)C3=C(C)[C@@H](OC(=O)[C@H](O)[C@@H](NC(=O)OC(C)(C)C)c4ccccc4)C[C@@](O)([C@@H](OC(=O)c4ccccc4)[C@H]21)C3(C)C [Docetaxel] + O=C(CCCCCCC(=O)Nc1ccccc1)NO [Vorinostat] (partner 1 µM)" quantity="relative viability" quantitative_result=0.161
compound="CC(=O)O[C@@]12CO[C@@H]1C[C@H](O)[C@@]1(C)C(=O)[C@H](O)C3=C(C)[C@@H](OC(=O)[C@H](O)[C@@H](NC(=O)OC(C)(C)C)c4ccccc4)C[C@@](O)([C@@H](OC(=O)c4ccccc4)[C@H]21)C3(C)C [Docetaxel] + COc1cc2c(Oc3ccc(NC(=O)C4(C(=O)Nc5ccc(F)cc5)CC4)cc3F)ccnc2cc1OCCCN1CCOCC1 [Foretinib] (partner 0.25 µM)" quantity="relative viability" quantitative_result=0.105

====

Entries annotated with measured relative viability
# System: EMC-BAC-2
# PROTOCOL_DESCRIPTION: relative viability (nuclei count vs DMSO), 5 days (fraction); higher = more cells survive
# COND: first compound 50 µM
QUANTITY: relative viability

molecule="O=C(O)CCCCC(CCSCc1ccccc1)SCc1ccccc1 (centres undefined) [CPI-613] + CS(=O)(=O)N1CCN(Cc2cc3nc(-c4cccc5[nH]ncc45)nc(N4CCOCC4)c3s2)CC1 [Pictilisib] (partner 1 µM)" quantity="relative viability" quantitative_result=0.556
molecule="O=C(O)CCCCC(CCSCc1ccccc1)SCc1ccccc1 (centres undefined) [CPI-613] + CC(C)C[C@H](NC(=O)[C@H](Cc1ccccc1)NC(=O)c1cnccn1)B(O)O [Bortezomib] (partner 0.002 µM)" quantity="relative viability" quantitative_result=1.07
molecule="O=C(O)CCCCC(CCSCc1ccccc1)SCc1ccccc1 (centres undefined) [CPI-613] + C[C@]1(O)C[C@@H](c2nc(-c3ccc4ccc(-c5ccccc5)nc4c3)c3c(N)nccn32)C1 [Linsitinib] (partner 1 µM)" quantity="relative viability" quantitative_result=0.825
molecule="O=C(O)CCCCC(CCSCc1ccccc1)SCc1ccccc1 (centres undefined) [CPI-613] + COc1cc2c(Oc3ccc(NC(=O)C4(C(=O)Nc5ccc(F)cc5)CC4)cc3F)ccnc2cc1OCCCN1CCOCC1 [Foretinib] (partner 0.25 µM)" quantity="relative viability" quantitative_result=0.967

====

# Tested on: NCI-H2085
# PROTOCOL_DESCRIPTION: relative viability (nuclei count vs DMSO), 5 days (fraction); higher = more cells survive
# COND: first compound 4 µM
Entries annotated with measured relative viability
QUANTITY: relative viability

compound="Cc1sc2c(c1C)C(c1ccc(Cl)cc1)=N[C@@H](CC(=O)OC(C)(C)C)c1nnc(C)n1-2 [JQ1] + C[C@@H](Oc1cc(-c2cnn(C3CCNCC3)c2)cnc1N)c1c(Cl)ccc(F)c1Cl [Crizotinib] (partner 1 µM)" quantitative_result=0.448
compound="Cc1sc2c(c1C)C(c1ccc(Cl)cc1)=N[C@@H](CC(=O)OC(C)(C)C)c1nnc(C)n1-2 [JQ1] + C[C@]1(O)C[C@@H](c2nc(-c3ccc4ccc(-c5ccccc5)nc4c3)c3c(N)nccn32)C1 [Linsitinib] (partner 1 µM)" quantitative_result=0.453
compound="Cc1sc2c(c1C)C(c1ccc(Cl)cc1)=N[C@@H](CC(=O)OC(C)(C)C)c1nnc(C)n1-2 [JQ1] + O=C(c1cc(Cc2n[nH]c(=O)c3ccccc23)ccc1F)N1CCN(C(=O)C2CC2)CC1 [Olaparib] (partner 8 µM)" quantitative_result=0.604
